biological target: fusion protein PRI
Sequence (chain, as listed by the source): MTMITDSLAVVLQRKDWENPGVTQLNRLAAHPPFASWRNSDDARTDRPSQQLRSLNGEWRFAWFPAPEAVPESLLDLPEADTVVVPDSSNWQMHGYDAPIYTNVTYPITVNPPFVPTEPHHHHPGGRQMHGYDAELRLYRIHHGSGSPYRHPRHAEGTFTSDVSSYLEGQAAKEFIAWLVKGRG
value kind: relative cleavage efficiency

protein	relative cleavage efficiency
OmpT protease variant OmpT D97Q (protein) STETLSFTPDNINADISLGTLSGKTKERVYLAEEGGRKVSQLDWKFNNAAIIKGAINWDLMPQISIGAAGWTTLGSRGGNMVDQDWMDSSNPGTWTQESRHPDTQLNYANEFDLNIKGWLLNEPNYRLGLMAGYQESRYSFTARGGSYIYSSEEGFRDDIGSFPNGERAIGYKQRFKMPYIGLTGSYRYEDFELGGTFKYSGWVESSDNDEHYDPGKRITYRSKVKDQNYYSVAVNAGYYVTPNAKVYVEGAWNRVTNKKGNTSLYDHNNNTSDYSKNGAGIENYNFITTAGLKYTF	< 3%
OmpT protease variant OmpT D97S (protein) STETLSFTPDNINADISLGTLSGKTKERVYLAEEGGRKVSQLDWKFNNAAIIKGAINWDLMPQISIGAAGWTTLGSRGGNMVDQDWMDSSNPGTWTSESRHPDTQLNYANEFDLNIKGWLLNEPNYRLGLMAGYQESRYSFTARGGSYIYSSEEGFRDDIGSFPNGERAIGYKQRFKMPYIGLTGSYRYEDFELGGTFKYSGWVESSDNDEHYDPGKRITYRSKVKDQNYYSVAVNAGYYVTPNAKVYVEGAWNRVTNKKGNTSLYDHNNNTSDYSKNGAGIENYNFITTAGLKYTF	< 3%
OmpT protease variant OmpT D97F (protein) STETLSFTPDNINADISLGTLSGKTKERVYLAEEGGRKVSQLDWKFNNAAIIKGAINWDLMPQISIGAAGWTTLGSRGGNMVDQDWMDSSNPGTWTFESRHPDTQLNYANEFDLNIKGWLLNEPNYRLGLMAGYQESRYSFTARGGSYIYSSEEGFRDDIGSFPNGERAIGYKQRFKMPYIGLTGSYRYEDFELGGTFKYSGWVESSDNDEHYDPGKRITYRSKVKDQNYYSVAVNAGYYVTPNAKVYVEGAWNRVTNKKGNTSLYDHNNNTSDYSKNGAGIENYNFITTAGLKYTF	< 3%
OmpT protease variant OmpT D97W (protein) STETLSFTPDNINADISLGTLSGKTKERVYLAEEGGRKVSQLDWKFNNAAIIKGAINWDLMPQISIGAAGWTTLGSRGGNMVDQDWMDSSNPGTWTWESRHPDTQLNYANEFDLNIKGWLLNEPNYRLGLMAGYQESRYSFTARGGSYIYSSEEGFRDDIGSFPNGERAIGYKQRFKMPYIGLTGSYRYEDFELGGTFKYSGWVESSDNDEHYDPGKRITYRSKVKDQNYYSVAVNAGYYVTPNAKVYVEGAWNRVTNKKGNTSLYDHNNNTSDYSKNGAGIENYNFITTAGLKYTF	less than 3.0%
OmpT protease variant OmpT D97Y (protein) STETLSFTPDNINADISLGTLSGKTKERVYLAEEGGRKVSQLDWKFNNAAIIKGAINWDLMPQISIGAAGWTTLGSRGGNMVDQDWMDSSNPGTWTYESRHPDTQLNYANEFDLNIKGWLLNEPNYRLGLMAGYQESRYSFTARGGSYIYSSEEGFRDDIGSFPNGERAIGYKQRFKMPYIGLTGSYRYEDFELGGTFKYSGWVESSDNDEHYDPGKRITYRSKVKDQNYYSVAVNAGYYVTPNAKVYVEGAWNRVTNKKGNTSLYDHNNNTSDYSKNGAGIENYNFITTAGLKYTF	less than 3.0%

Prompt line: Give the measured relative cleavage efficiency of OmpT protease variant OmpT D97P (protein) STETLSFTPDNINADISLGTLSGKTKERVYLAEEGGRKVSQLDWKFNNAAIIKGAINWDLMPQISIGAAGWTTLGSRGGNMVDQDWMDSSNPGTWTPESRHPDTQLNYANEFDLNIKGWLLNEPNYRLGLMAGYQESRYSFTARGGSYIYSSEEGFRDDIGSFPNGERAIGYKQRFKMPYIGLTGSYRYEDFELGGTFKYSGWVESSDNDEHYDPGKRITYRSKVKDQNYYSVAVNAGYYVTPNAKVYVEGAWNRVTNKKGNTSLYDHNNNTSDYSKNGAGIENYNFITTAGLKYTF .
Response line: less than 3.0%

Prompt line: Give the measured relative cleavage efficiency of OmpT protease variant OmpT D97K (protein) STETLSFTPDNINADISLGTLSGKTKERVYLAEEGGRKVSQLDWKFNNAAIIKGAINWDLMPQISIGAAGWTTLGSRGGNMVDQDWMDSSNPGTWTKESRHPDTQLNYANEFDLNIKGWLLNEPNYRLGLMAGYQESRYSFTARGGSYIYSSEEGFRDDIGSFPNGERAIGYKQRFKMPYIGLTGSYRYEDFELGGTFKYSGWVESSDNDEHYDPGKRITYRSKVKDQNYYSVAVNAGYYVTPNAKVYVEGAWNRVTNKKGNTSLYDHNNNTSDYSKNGAGIENYNFITTAGLKYTF .
Response line: less than 3.0%

Prompt line: Give the measured relative cleavage efficiency of OmpT protease variant OmpT D97C (protein) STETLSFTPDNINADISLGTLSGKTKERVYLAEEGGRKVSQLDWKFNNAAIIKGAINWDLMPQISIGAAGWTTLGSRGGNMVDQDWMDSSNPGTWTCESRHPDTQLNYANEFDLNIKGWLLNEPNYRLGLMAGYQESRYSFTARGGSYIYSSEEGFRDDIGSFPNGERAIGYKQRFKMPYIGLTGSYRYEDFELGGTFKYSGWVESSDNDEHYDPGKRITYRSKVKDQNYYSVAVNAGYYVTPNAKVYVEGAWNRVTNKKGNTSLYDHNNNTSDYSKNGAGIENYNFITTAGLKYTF .
Response line: < 3%

Cited source: patent US20070077617
